molecular target: Recombinant human KIF18A (1-467 His-tagged) protein (Homo sapiens, UniProt Q8NI77); construct: Recombinant human KIF18A (1-467 His-tagged) protein; His; experiment: KIF18A Enzyme Assay: microtubule-stimulated ATPase activity (ADP-Glo); settings: 30 nM KIF18A, 30 μg/mL pig microtubules, 75 μM ATP, ADP-Glo luminescence
Sequence (Q8NI77 1-467): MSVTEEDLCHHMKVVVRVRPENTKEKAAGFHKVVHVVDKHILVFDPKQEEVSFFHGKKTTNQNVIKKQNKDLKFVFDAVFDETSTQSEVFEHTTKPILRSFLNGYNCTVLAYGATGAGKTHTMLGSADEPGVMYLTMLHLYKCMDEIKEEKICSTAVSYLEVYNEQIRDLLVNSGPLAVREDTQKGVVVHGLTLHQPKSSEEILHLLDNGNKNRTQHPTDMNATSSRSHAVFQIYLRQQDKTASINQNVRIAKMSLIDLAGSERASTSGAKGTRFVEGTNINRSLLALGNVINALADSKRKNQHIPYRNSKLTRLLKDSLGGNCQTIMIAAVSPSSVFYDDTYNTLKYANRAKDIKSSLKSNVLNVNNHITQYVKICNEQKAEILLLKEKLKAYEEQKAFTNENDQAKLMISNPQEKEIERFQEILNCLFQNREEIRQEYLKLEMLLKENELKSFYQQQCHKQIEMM
Sequence (P02550 whole entry partner): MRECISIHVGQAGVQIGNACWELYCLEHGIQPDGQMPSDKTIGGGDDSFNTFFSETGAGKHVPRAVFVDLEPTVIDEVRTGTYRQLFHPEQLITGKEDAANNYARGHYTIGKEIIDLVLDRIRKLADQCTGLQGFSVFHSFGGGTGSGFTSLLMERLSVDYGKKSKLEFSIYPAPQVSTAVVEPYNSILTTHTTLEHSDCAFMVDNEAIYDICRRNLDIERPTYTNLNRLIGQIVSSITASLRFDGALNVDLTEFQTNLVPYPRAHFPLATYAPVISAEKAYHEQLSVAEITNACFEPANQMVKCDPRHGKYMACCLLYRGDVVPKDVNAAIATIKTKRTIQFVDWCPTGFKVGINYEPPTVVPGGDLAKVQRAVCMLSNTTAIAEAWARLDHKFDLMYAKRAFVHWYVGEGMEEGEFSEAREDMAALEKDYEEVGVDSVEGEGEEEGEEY
Sequence (P02554 whole entry partner): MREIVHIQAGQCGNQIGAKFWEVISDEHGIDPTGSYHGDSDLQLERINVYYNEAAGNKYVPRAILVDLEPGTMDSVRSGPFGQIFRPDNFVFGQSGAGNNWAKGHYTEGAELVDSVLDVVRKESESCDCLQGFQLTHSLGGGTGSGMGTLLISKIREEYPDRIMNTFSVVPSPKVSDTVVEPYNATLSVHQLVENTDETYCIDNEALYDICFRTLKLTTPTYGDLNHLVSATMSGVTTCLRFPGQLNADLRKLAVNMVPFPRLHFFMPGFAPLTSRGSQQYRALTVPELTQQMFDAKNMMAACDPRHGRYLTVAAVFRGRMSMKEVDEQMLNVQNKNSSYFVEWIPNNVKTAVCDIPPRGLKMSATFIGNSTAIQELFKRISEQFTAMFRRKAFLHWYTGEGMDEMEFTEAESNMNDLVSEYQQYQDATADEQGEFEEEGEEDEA
property.measured: IC50 (nM)

compound | property.measured | numeric.readout
CNC1CCCN(c2cccc(NC(=O)c3ccc(NC(C)(C)CO)nc3N3CCC4(CC3)CC4)n2)C1 (stereo not shown) | IC50 | 999
CC(C)(CO)Nc1ccc(C(=O)Nc2cccc(N3CCCC3=O)n2)c(N2CCC3(CC2)CC3)n1 | IC50 | 204
CC1CN(c2cccc(NC(=O)c3ccc(NC(C)(C)CO)nc3N3CCC4(CC3)CC4)n2)CCO1 (stereo not shown) | IC50 | 60.2
CC(C)(CO)Nc1cccc(NC(=O)c2ccc(NC(C)(C)CO)nc2N2CCC3(CC2)CC3)n1 | IC50 | 70.7
O=C(Nc1cccc(N2CCC[C@@H](O)C2)n1)c1ccc(C(O)(CO)C(F)(F)F)nc1N1CCC2(CC1)CC2 (stereo partly shown) | IC50 | 78.1
CC(C)(C)NS(=O)(=O)c1cccc(NC(=O)c2ccc(NC(C)(C)CO)nc2N2CCC3(CC2)CC3)n1 | IC50 | 64
CC(C)N1CCN(c2cccc(NC(=O)c3ccc(NC(C)(C)CO)nc3N3CCC4(CC3)CC4)n2)CC1 | IC50 | 2260
CC(C)(CO)Nc1ccc(C(=O)Nc2cccc(N3CCN(C4CCC4)CC3)n2)c(N2CCC3(CC2)CC3)n1 | IC50 | 1240
C[C@H]1CCN(c2cccc(NC(=O)c3ncc(NC(C)(C)CO)nc3N3CCC4(CC3)CC4)n2)C1 | IC50 | 122
O=C(Nc1cccc(N2CCOCC2)n1)c1ccc([C@@](O)(CO)C(F)(F)F)nc1N1CCC2(CC1)CC2 (single isomer, unassigned) | IC50 | 76.9
C[C@@H]1CN(c2cccc(NC(=O)c3ccc(NC(C)(C)CCO)nc3N3CCC4(CC3)CC4)n2)CCO1 | IC50 | 170
CC(C)(C)NS(=O)(=O)c1cccc(NC(=O)c2ccc([C@@](O)(CO)C(F)(F)F)nc2N2CCC3(CC2)CC3)n1 (single isomer, unassigned) | IC50 | 116
CC(C)(CO)Nc1ccc(C(=O)Nc2cccc(N3CCOC(C(C)(C)O)C3)n2)c(N2CCC3(CC2)CC3)n1 (stereo not shown) | IC50 | 365
C[C@@H]1CN(c2cccc(NC(=O)c3ccc(NS(C)(=O)=O)nc3N3CCC4(CC3)CC4)n2)CCO1 | IC50 | 150
CC(C)(CO)Nc1ccc(C(=O)Nc2cccc(N3CCOC(C(F)(F)F)C3)n2)c(N2CCC3(CC2)CC3)n1 (stereo not shown) | IC50 | 123
CC1(C)COC(=O)N1c1ccc(C(=O)Nc2cccc(N3CC[C@H](O)C3(C)C)n2)c(N2CCC3(CC2)CC3)n1 (stereo in doubt) | IC50 | 2250
Cc1cc(NC(=O)c2ccc(OCC(N)(CO)C(F)(F)F)nc2N2CCC3(CC2)CC3)nc(N2CCOCC2)c1 (stereo not shown) | IC50 | 692
CC(C)(CO)Nc1ccc(C(=O)Nc2cccc(-c3ncco3)n2)c(N2CCC3(CC2)CC3)n1 | IC50 | 316
C[C@@H]1CN(c2cccc(NC(=O)c3ccc(OCCC(C)(C)N)nc3N3CCC4(CC3)CC4)n2)CCO1 | IC50 | 411
Cc1cc(NC(=O)c2ncc(NC(C)(C)CO)nc2N2CCC3(CC2)CC3)nc(N2CCOCC2)c1 | IC50 | 178
Cc1cc(NC(=O)c2ccc(NC(C)(CO)CO)nc2N2CCC3(CC2)CC3)nc(N2CCOCC2)c1 | IC50 | 62
CC(C)(CO)Nc1ccc(C(=O)Nc2cccc(N3CC(F)C3)n2)c(N2CCC3(CC2)CC3)n1 | IC50 | 76.5
CC(c1ccc(C(=O)Nc2cccc(N3CCO[C@H](C)C3)n2)c(N2CCC3(CC2)CC3)n1)S(C)(=O)=O (stereo partly shown) | IC50 | 51.2
CC(C)C1CN(c2cccc(NC(=O)c3ccc(NC(C)(C)CO)nc3N3CCC4(CC3)CC4)n2)CCO1 (stereo not shown) | IC50 | 242
C[C@@H]1CN(c2cccc(NC(=O)c3ccc(CS(C)(=O)=O)nc3N3CCC4(CC3)CC4)n2)CCO1 | IC50 | 68.1
CC(C)(C)NS(=O)(=O)c1cccc(NC(=O)c2ccc(F)nc2N2CCC3(CC2)CC3)n1 | IC50 | 643
CC(CO)(CO)Nc1ccc(C(=O)Nc2cccc(N3CCC(F)(F)C3)n2)c(N2CCC3(CC2)CC3)n1 | IC50 | 59.1
CC(C)(C)NS(=O)(=O)c1cccc(NC(=O)c2ccc(C(F)(CO)CO)nc2N2CCC3(CC2)CC3)n1 | IC50 | 283
